# experiment: method code SF-AS, from PMID: 6686445
# cond: pH 7.4
quantity name: logD

Known logD results, listed for orientation:
[
  {
    "compound": "CCN1C(=O)CN=C(c2ccccc2)c2cc(N)ccc21",
    "observed value": 1.81
  },
  {
    "compound": "O=C1CN=C(c2ccc(C(F)(F)F)cc2)c2ccccc2N1",
    "observed value": 3.34
  },
  {
    "compound": "Cc1ccc2c(c1)C(c1ccccc1)=NCC(=O)N2",
    "observed value": 2.62
  }
]

Inquiry: Can you share its logD? I mean this compound: O=C1CN=C(c2cccc(C(F)(F)F)c2)c2ccccc2N1
Reply text: 3.19

Inquiry: Can you share its logD? I mean this compound: COCN1C(=O)CN=C(c2ccccc2)c2cc(Cl)ccc21
Reply text: 2.86

Inquiry: Can you share its logD? I mean this compound: COCN1C(=O)CN=C(c2ccccc2)c2cc([N+](=O)[O-])ccc21
Reply text: 2.05

Inquiry: Can you share its logD? I mean this compound: COCN1C(=O)C(O)N=C(c2ccccc2)c2cc(N)ccc21 (stereo not given)
Reply text: 0.75

Inquiry: Can you share its logD? I mean this compound: C[C@@H]1N=C(c2ccccc2Cl)c2cc([N+](=O)[O-])ccc2NC1=O
Reply text: 2.72

Inquiry: Can you share its logD? I mean this compound: CCN1C(=O)CN=C(c2ccccc2)c2cc(Cl)ccc21
Reply text: 3.21
